# TARGET_OF_ASSAY: DPP-4 (Homo sapiens)
# Sequence (P27487 whole entry): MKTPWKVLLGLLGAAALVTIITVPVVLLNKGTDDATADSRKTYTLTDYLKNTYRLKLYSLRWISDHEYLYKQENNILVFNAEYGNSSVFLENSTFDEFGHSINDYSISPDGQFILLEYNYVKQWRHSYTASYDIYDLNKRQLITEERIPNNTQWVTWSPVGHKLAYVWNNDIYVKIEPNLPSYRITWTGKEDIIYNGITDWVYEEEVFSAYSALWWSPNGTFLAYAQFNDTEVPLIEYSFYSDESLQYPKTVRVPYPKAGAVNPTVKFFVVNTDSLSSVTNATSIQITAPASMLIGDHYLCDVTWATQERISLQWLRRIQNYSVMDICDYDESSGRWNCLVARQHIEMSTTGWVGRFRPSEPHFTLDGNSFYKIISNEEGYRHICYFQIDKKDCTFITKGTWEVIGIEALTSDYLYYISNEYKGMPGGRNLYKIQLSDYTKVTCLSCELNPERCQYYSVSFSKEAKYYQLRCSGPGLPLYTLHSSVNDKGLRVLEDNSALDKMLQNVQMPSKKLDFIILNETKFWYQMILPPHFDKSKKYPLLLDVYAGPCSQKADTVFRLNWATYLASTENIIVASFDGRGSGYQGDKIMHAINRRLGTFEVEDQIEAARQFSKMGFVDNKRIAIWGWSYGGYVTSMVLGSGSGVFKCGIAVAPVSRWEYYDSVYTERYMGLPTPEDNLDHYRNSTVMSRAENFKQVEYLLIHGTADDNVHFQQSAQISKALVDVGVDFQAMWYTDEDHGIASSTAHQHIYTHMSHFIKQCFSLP
Reported values of IC50 for individual entries

{"COMPOUND": "O=c1cc(-c2ccc(O)c(O)c2)oc2c(O)c(O)cc(O)c12 [Hypolaetin, 3′,4′,5,7,8-Pentahydroxyflavone]", "TARGET_OF_ASSAY": "DPP-4 (Homo sapiens)", "RELATION": "=", "IC50 [µM]": 115}
{"COMPOUND": "O=c1cc(-c2ccc(O)cc2)oc2c(O)c(O)cc(O)c12 [Isoscutellarein, 4′,5,7,8-Tetrahydroxyflavone]", "TARGET_OF_ASSAY": "DPP-4 (Homo sapiens)", "RELATION": "=", "IC50 [µM]": 77.7}
{"COMPOUND": "CC(=O)Oc1cc(OC(C)=O)c2c(=O)cc(-c3ccccc3)oc2c1OC(C)=O [Acetate (norwogonin), 5,7,8-Triacetoxyflavone]", "TARGET_OF_ASSAY": "DPP-4 (Homo sapiens)", "RELATION": ">", "IC50 [µM]": 252}
{"COMPOUND": "COc1cc(O)c2c(=O)cc(-c3ccccc3)oc2c1 [Techtochrysin, 5-Hydroxy-7-methoxyflavone]", "TARGET_OF_ASSAY": "DPP-4 (Homo sapiens)", "RELATION": ">", "IC50 [µM]": 373}
{"COMPOUND": "COc1c(O)cc(O)c2c(=O)cc(-c3ccccc3)oc12 [Wogonin, 5,7-Dihydroxy-8-methoxyflavone]", "TARGET_OF_ASSAY": "DPP-4 (Homo sapiens)", "RELATION": ">", "IC50 [µM]": 352}
{"COMPOUND": "O=c1c(O)c(-c2ccc(O)c(O)c2)oc2cc(O)cc(O)c12 [Quercetin, 3,3′,4′,5,7-Pentahydroxyflavone]", "TARGET_OF_ASSAY": "DPP-4 (Homo sapiens)", "RELATION": "=", "IC50 [µM]": 72}

----------
# TARGET_OF_ASSAY: xanthine oxidase from buttermilk (Bos taurus)
# Construct: 0.3 U/mL enzymes (xanthine oxidase from buttermilk); purchased Sigma-Aldrich (Singapore); host or cells: buttermilk (natural source)
# Sequence (P80457 whole entry): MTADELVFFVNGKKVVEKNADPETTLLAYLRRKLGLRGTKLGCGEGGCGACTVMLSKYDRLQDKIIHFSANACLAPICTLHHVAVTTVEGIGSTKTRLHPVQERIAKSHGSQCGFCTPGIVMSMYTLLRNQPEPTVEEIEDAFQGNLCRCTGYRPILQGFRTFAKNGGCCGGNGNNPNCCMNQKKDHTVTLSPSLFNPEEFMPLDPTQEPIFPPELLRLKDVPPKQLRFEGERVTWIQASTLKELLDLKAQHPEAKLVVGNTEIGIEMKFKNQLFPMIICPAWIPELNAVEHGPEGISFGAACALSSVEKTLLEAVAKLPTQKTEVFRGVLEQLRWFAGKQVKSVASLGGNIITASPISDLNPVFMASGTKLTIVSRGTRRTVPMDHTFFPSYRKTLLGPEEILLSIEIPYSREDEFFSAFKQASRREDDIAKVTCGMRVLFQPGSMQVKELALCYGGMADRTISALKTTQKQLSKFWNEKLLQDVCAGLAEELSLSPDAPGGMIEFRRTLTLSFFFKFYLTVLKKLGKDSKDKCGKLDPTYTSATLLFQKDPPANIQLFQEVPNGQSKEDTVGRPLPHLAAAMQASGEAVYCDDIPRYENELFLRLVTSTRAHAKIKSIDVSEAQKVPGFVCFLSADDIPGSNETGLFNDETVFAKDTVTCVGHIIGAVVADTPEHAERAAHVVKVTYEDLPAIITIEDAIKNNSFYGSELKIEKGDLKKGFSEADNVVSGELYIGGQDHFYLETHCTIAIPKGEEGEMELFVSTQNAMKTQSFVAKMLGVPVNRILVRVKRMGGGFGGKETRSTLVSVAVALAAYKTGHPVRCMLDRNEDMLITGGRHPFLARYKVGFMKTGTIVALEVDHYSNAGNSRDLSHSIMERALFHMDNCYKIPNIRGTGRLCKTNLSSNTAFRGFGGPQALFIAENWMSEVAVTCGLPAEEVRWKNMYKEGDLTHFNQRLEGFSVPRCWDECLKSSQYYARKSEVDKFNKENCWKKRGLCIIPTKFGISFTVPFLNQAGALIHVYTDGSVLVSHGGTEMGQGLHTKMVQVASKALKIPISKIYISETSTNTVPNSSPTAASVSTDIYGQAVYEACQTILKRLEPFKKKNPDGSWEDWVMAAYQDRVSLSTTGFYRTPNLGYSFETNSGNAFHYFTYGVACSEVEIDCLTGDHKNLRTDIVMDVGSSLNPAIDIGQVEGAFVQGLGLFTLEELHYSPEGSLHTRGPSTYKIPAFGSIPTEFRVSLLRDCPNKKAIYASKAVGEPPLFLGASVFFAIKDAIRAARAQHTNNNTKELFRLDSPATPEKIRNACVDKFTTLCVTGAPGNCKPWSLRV
# TEST_SUMMARY: Xanthine oxidase inhibitory assay (XOI)
# Type: biochemical
# SETTINGS: xanthine oxidase inhibition, 295 nm; mean ± SEM (n = 3); NA: not active
pIC50: −log10 of the molar value.
Each record here notes measured pIC50.
REPORTED_METRIC: pIC50

{"MOLECULE": "COc1cc(O)c2c(=O)cc(-c3ccccc3)oc2c1 [Techtochrysin, 5-Hydroxy-7-methoxyflavone]", "REPORTED_METRIC": "pIC50", "MEASURED": "< 3.43"}
{"MOLECULE": "O=c1cc(-c2ccc(O)c(O)c2)oc2c(O)c(O)cc(O)c12 [Hypolaetin, 3′,4′,5,7,8-Pentahydroxyflavone]", "REPORTED_METRIC": "pIC50", "MEASURED": "< 3.48"}
{"MOLECULE": "O=c1cc(-c2ccc(O)cc2)oc2c(O)c(O)cc(O)c12 [Isoscutellarein, 4′,5,7,8-Tetrahydroxyflavone]", "REPORTED_METRIC": "pIC50", "MEASURED": "< 3.46"}
{"MOLECULE": "O=c1cc(-c2ccccc2)oc2cc(O)cc(O)c12 [Chrysin, 5,7-Dihydroxyflavone]", "REPORTED_METRIC": "pIC50", "MEASURED": "< 3.41"}
